// values below are reported GI50
System: UACC-257
assay_details: NCI tumour cell line growth inhibition, 48 h
Active and inactive are the calls of the source. Cut-off read from the data, not from the text of the source: active = GI50 up to about 1.1 µM and inactive = higher.

* N=c1oc2ccc(Cl)cc2cc1C(=O)NCc1ccccc1 | > 100 µM (inactive)

[in] Return reported GI50; argument: CCN(CC(COc1ccc2c(c1)[n+]([O-])nc(N)[n+]2[O-])OC(C)=O)C(C)=O (stereo unspecified)
[out] 76.7 µM (inactive)

[in] Return reported GI50; argument: OCC(O)C(O)C(O)C(O)c1nc2cc(Cl)ccc2[nH]1 (stereo unspecified)
[out] > 100 µM (inactive)

[in] Return reported GI50; argument: Cn1[nH]nn/c1=N\N=C\c1ccccc1
[out] > 10 µM (inactive)

[in] Return reported GI50; argument: O=c1ccn(C2OC(CO)C(O)C2F)c(=O)n1Cc1ccccc1 (stereo unspecified)
[out] > 100 µM (inactive)

[in] Return reported GI50; argument: Oc1c(Br)ccc2cccnc12
[out] 1.36 µM (inactive)

[in] Return reported GI50; argument: CC1=NOC2(C1)C(=O)Nc1ccccc12 (stereo unspecified)
[out] > 100 µM (inactive)

[in] Return reported GI50; argument: N/C=N/S(=O)(=O)c1ccc(NC(=O)COC(=O)c2cccc3c(=O)c4ccccc4[nH]c23)cc1
[out] > 100 µM (inactive)

[in] Return reported GI50; argument: O=C1/C(=C\c2cccc(Oc3ccccc3)c2)SC(c2ccccc2)N1c1ccccc1Cl (stereo unspecified)
[out] 24.5 µM (inactive)

[in] Return reported GI50; argument: C=CCOCCC(CC=C)C(=O)CC(=O)OC (stereo unspecified)
[out] > 100 µM (inactive)

[in] Return reported GI50; argument: CC1(C)Oc2ccc3c(=O)c4ccccc4oc3c2C1C(=O)O (stereo unspecified)
[out] > 100 µM (inactive)

* * *

Test system: HOP-18
assay_details: NCI tumour cell line growth inhibition, 48 h
The source made the active and inactive calls. Rule as the data show it: active = GI50 up to about 1.1 µM and inactive = higher.
// values below are reported GI50

Past entries and their recorded results:
• COc1ccc(/C=C2\C(=O)N(C(=O)c3ccc(NC(C)=O)cc3)N=C2C)cc1 = > 100 µM (inactive)
• COC1CC(Br)(C#N)C1 (stereo unspecified) = > 100 µM (inactive)
• COc1cc2c(cc1O)[C@H](C)C(c1ccc(OC)c(OC)c1)O2 (stereo partly specified) = 4.36 µM (inactive)
• COc1ccc2c(c1)C(=O)Cc1ccccc1CC2 = > 100 µM (inactive)
• Cc1nnc2n1N=C(c1ccccc1)C(c1ccccc1)S2 (stereo unspecified) = 60.7 µM (inactive)

[in] Return reported GI50; argument: NC(=O)/C=C/C(=O)O
[out] > 5000 µM (inactive)

[in] Return reported GI50; argument: Cc1ccccc1NC(=O)C(=O)CC(=O)c1c(C)[n+]([O-])c2ccccc2[n+]1[O-]
[out] > 100 µM (inactive)

[in] Return reported GI50; argument: C[N+](C)(C)CC(=O)N/N=C/c1oc(-c2c(O)ccc3ccccc23)c(-c2c(O)ccc3ccccc23)c1[N+](=O)[O-]
[out] 15.9 µM (inactive)

[in] Return reported GI50; argument: Cc1nc2ccccc2c(=O)n1/N=C(\N=N\c1ccccc1)c1ccccc1Cl
[out] 13.6 µM (inactive)

[in] Return reported GI50; argument: C[C@]12CCc3nonc3C1CC[C@@H]1C2CC[C@]2(C)C(=O)/C(=N\O)CC12 (stereo partly specified)
[out] > 100 µM (inactive)

[in] Return reported GI50; argument: O=C1CC2C=CC1C2CO (stereo unspecified)
[out] > 100 µM (inactive)

* * *

Consider compounds characterized by their GI50 with HCT-15.

* CC(=O)OC1C(COC(=O)c2ccccc2)OC(Nc2ncc(-c3ccc(Br)cc3)s2)C(OC(=O)c2ccccc2)C1OC(=O)c1ccccc1 (stereo unspecified) | > 10 µM
* COc1ccccc1CCc1cc(OC)c(OC)c(OC)c1 | 36.1 µM
* Nc1nc(NNc2cccc(F)c2)cc(=O)[nH]1 | 42.5 µM
* COc1ccc(C2c3cc4c(cc3OC(NCCO)C2C)OCO4)cc1 (stereo unspecified) | 17.7 µM
* N#Cc1ccc(C2SCc3nc4ccccc4n32)cc1 (stereo unspecified) | > 100 µM

Moving on to another compound below.
[in] Form field: GI50 recorded for CC(C)N1[C@@H]2CCCC[C@H]2N(C(C)C)P1(=O)C(=O)/C=C/c1ccccc1 with HCT-15 (enter value)
[out] 1.92 µM

* * *

// values below are reported GI50
Tested on: A498
assay_details: NCI tumour cell line growth inhibition, 48 h
Activity calls are given as the source filed them. No stated cut-off is given here; in the data, active = GI50 up to about 1.1 µM and inactive = higher.

Past entries and their recorded results:
- Cc1c(C(=O)OCc2ccccc2)[n+]([O-])c2cc(Cl)c(Cl)cc2[n+]1[O-]: 20.5 µM (inactive)
- CCOC(=O)c1c[nH]c2cc3c(cc2c1=O)CCS3(=O)=O.CCOC(=O)c1c[nH]c2ccc3c(c2c1=O)S(=O)(=O)CC3: > 100 µM (inactive)

[in] Return reported GI50; argument: O=S(O)CCCCSSCCCCSSCCCCS(=O)O
[out] 96.6 µM (inactive)

* * *

Tested on: A549
assay_details: NCI tumour cell line growth inhibition, 48 h
Calls of active or inactive are those of the source. No stated cut-off is given here; in the data, active = GI50 up to about 1.1 µM and inactive = higher.
// values below are reported GI50

Past entries and their recorded results:
* CC(=O)NC(CCCCNC(=O)N(CCCl)N=O)C(=O)NCc1ccccc1 (stereo not drawn) | > 100 µM (inactive)
* Cc1cccc(NC(=O)/C(=N\NC(C)(C)C)C2NC(=S)NC2=O)c1C (stereo not drawn) | > 100 µM (inactive)
* O=C1c2cc(Cl)ccc2N=C(NCCCl)C2CSCN12 (stereo not drawn) | > 100 µM (inactive)

[in] Return reported GI50; argument: CC1=NN(C(=O)Cc2ccccc2)C(=O)/C1=C/c1c(O)ccc2ccccc12
[out] > 100 µM (inactive)

[in] Return reported GI50; argument: O=C(O)C1C2C=CC(O2)C1C(=O)NCc1ccccn1 (stereo not drawn)
[out] > 100 µM (inactive)

[in] Return reported GI50; argument: CCn1c(SCC(=O)NNC(=S)Nc2ccc(F)cc2)nc2ccccc2c1=O
[out] > 100 µM (inactive)

[in] Return reported GI50; argument: COC(=O)C1=C(O)c2ccc(Cl)cc2S(=O)(=O)N1C
[out] 44.4 µM (inactive)

[in] Return reported GI50; argument: O=C(Nc1ccccc1)OC1OC(COC(=O)c2ccccc2)C(OC(=O)c2ccccc2)C1OS(=O)(=O)c1ccc([N+](=O)[O-])cc1 (stereo not drawn)
[out] > 100 µM (inactive)

[in] Return reported GI50; argument: O=C(NCCCCN(CCCNC(=O)C(F)(F)F)Cc1ccc2ccccc2c1)C(F)(F)F
[out] 30.4 µM (inactive)

[in] Return reported GI50; argument: O=C(O)C1CCc2nnc(-c3ccccc3)n21 (stereo not drawn)
[out] > 100 µM (inactive)

* * *

// values below are reported GI50
Tested on: PC-3
assay_details: NCI tumour cell line growth inhibition, 48 h
Activity calls are given as the source filed them. Rule as the data show it: active = GI50 up to about 1.1 µM and inactive = higher.

• N#CSC1CCCCNC1=O (stereo unspecified) = 13.6 µM (inactive)

[in] Return reported GI50; argument: COC(=O)C1(O)C(c2ccccc2)NC2(C)CCCC21 (stereo unspecified)
[out] > 100 µM (inactive)

[in] Return reported GI50; argument: Cc1cc(NC(=O)NC(=O)c2ccccc2[N+](=O)[O-])ccc1Oc1ncc(Cl)cn1
[out] 0.0336 µM (active)

[in] Return reported GI50; argument: CC(=O)OC(/C=C/c1ccccc1)=C(OC(C)C)/C1=C(\c2ccccc2)SCCCSC1=O
[out] > 100 µM (inactive)

[in] Return reported GI50; argument: Cc1c(C(=O)OCc2ccccc2)[n+]([O-])c2cc(Cl)c(Cl)cc2[n+]1[O-]
[out] 15.7 µM (inactive)

* * *

// values below are reported GI50
Tested on: NCI-H23
assay_details: NCI tumour cell line growth inhibition, 48 h
Active and inactive are the calls of the source. No stated cut-off is given here; in the data, active = GI50 up to about 1.1 µM and inactive = higher.

Past entries and their recorded results:
- COC(=O)/C(=C/c1ccc(OC)cc1)c1cc(OC)c(OC)c(OC)c1: 2.84 µM (inactive)
- C[N+](C)(C)CC(=O)N/N=C/c1oc(-c2c(O)ccc3ccccc23)c(-c2c(O)ccc3ccccc23)c1[N+](=O)[O-]: 16.4 µM (inactive)
- CC(CC(=O)O)(CC(=O)O)c1ccccc1: > 100 µM (inactive)
- CCCNC(=O)Nc1ccc2c(c1)Cc1cc(N(CCCl)CCCl)ccc1-2: 36.1 µM (inactive)
- CC(=O)OCCOCNC(=S)N/N=C(\C)c1cccs1: > 100 µM (inactive)

[in] Return reported GI50; argument: COc1cc(-c2cc(CCC(=O)Nc3ccccc3[N+](=O)[O-])n(-c3ccc([N+](=O)[O-])cc3[N+](=O)[O-])n2)ccc1O
[out] > 10 µM (inactive)

[in] Return reported GI50; argument: COc1ccc(NC(=O)CSc2nnc(-c3ccc(NC(C)=O)cc3)o2)cc1
[out] 10.7 µM (inactive)

[in] Return reported GI50; argument: CN(C)CCOc1ccc(-c2c(Oc3ccc(Cl)cc3)c(=O)oc3ccccc23)cc1
[out] 14.5 µM (inactive)

[in] Return reported GI50; argument: C=C(/C=C/C=C(\CO)CCC=C(C)C)[C@H]1CCC2([C@H](CCCO)/C(=C(/C)C=O)CC[C@]2(C)O)[C@H]1O (some centres undefined)
[out] > 100 µM (inactive)
